Please provide measured EC50 for the entries that follow.
Test system: secreted cytokines TNFα, IL-6 and KC-GRO in BV-2 cells (mouse microglial cells)
Protocol text: Secreted cytokines in lipopolysaccharide-stimulated mouse glial cell line
Assay type: cell-based
Run conditions: LPS 250 ng/mL 5 hours, table does not say which cytokine
Answers are plain numbers, in nM.

[2H]c1nc([2H])c(-c2ccc3cnc(NC(=O)CN4CCOCC4)cc3c2)c([2H])c1[2H] [Compound 62]: 307
O=C(CN1CCOCC1)Nc1cc2cc(-c3ccnnc3)ccc2cn1 [Compound 67]: 406
CC(C)CN1CCCC(C(=O)Nc2cc3cc(-c4cnccn4)ccc3cn2)CC1 (centres unmarked) [Compound 81]: 1470
O=C(Nc1cc2cc(-c3cncc(CN4CCOCC4)c3)ccc2cn1)C1CC1 [Compound 57]: 152
O=C(Nc1cc2cc(-c3cnccn3)ccc2cn1)[C@H]1CC[C@H](CN2CC(F)C2)CC1 [Compound 72]: 1310

Okay, here is my list. What is EC50 for each of these?
1. CN1CCN(c2cc(C(=O)Nc3cc4cc(-c5cnc6ocnc6c5)ccc4cn3)ccn2)CC1 [Compound 132]
2. CN1CCN(C[C@H]2CC[C@H](C(=O)Nc3cc4cc(-c5cncc(F)c5)ccc4cn3)CC2)CC1 [Compound 17]
3. CC(C)Nc1cncc(-c2ccc3cnc(NC(=O)C4CCN(C)CC4)cc3c2)n1 [Compound 88]
4. CN1CCN(c2cc(C(=O)Nc3cc4cc(-c5cncc(C(F)F)c5)ccc4cn3)ccn2)CC1 [Compound 28]
5. O=C(Nc1cc2cc(-c3cnccn3)ccc2cn1)[C@H]1C[C@H](N2CCOCC2)C1 [Compound 69]
6. O=C(Nc1cc2cc(-c3cncc(CN4CCC(O)CC4)c3)ccc2cn1)C1CC1 [Compound 53]
7. CN1CCN(CC(=O)Nc2cc3cc(-c4ccc(F)nc4)ccc3cn2)CC1 [Compound 21]

Output:
1. 6080
2. 38
3. 1070
4. 295
5. 750
6. 55
7. 671

Okay, here is my list. What is EC50 for each of these?
1. O=C(CN1CCOCC1)Nc1cc2cc(-c3cnccn3)ccc2cn1 [Compound 79]
2. O=C(Nc1cc2cc(-c3cnccn3)ccc2cn1)C1CCN(C2COC2)CC1 [Compound 78]
3. O=C(Nc1cc2cc(-c3cccnc3)ccc2cn1)C1CC1 [Compound 6]
4. COc1cncc(-c2ccc3cnc(NC(=O)CN4CCOCC4)cc3c2)c1 [Compound 147]

Output:
1: 1700; 2: 131; 3: 33; 4: 628

Input: Specify measured EC50 for COc1cncc(-c2ccc3cnc(NC(=O)C4CCN(C)CC4)cc3c2)c1 [Compound 33] .
Output: 62

###

Experimental target: recombinant DYRK1A kinase (Homo sapiens (Human), UniProt Q13627)
Protocol text: DYRK1A kinase assay (Ser/Thr 18 peptide Z-lyte, FRET)
Run conditions: DYRK1A kinase; head says EC50, method says IC50; ATP 30 μM
Metric name: log10 EC50 (log10 of the value in nM)
Kindly note that the scale is log10 and the underlying EC50 is in nM.

// below: answered molecules
CC(C)Nc1cncc(-c2ccc3cnc(NC(=O)c4cn(C5CCN(C(C)C)CC5)nn4)cc3c2)n1: 0.00
O=C(Nc1cc2cc(-c3cccnc3)ccc2cn1)c1coc(C2CCNCC2)n1: 3.02
O=C(CN1CCCC1)Nc1cc2cc(-c3ccnnc3)ccc2cn1: 2.52
CC(C)Nc1cncc(-c2ccc3cnc(NC(=O)C4CCNCC4)cc3c2)n1: 0.00
O=C(Nc1cc2cc(-c3cncc(OCC4CNC4)n3)ccc2cn1)c1ccc(F)cc1: 0.78
CC(C)Nc1cncc(-c2ccc3cnc(NC(=O)c4cn(C5CCN(CCF)CC5)nn4)cc3c2)n1: 0.30
CN1CC=C(c2cc(C(=O)Nc3cc4cc(-c5cncc(NC(C)(C)C)n5)ccc4cn3)ccn2)CC1: 0.60
CN1CCN(c2cc(C(=O)Nc3cc4cc(-c5cc(N)cc(F)c5)ccc4cn3)ccn2)CC1: 1.88

Okay, here is my list. What is log10 EC50 for each of these?
1. CC(C)Nc1cncc(-c2ccc3cnc(NC(=O)c4cccc(C5CCN(C)CC5)c4)cc3c2)c1
2. CN1CCN(c2cc(C(=O)Nc3cc4cc(-c5cncc(N(C)C)n5)ccc4cn3)ccn2)CC1
3. O=C(Nc1cc2cc(-c3cncc(OC4CNC4)n3)ccc2cn1)c1ccc(F)cc1
4. O=C(Nc1cc2cc(-c3cccnc3)ccc2cn1)C1CC1

Output:
1. 0.48
2. 0.85
3. 0.70
4. 0.30

Okay, here is my list. What is log10 EC50 for each of these?
1. CC(C)Nc1cncc(-c2ccc3cnc(NC(=O)c4cccc(C5CCNCC5)c4)cc3c2)c1
2. CN(C)C1CN(c2cc(C(=O)Nc3cc4cc(-c5cncc(NC(C)(C)C)n5)ccc4cn3)ccn2)C1
3. O=C(Nc1cc2cc(-c3cncc(OC4CCNCC4)c3)ccc2cn1)C1CC1

Output:
1: 0.60; 2: 0.30; 3: 0.70

Okay, here is my list. What is log10 EC50 for each of these?
1. CC(C)(C)Nc1cncc(-c2ccc3cnc(NC(=O)c4ccnc(N5CCOCC5)c4)cc3c2)n1
2. CC(C)Nc1cncc(-c2ccc3cnc(NC(=O)c4cccc(C5CCNCC5)c4)cc3c2)n1
3. CN1CCN(CC(=O)Nc2cc3cc(-c4cccnc4)ccc3cn2)CC1

Output:
1: 1.28; 2: 0.95; 3: 1.30

Okay, here is my list. What is log10 EC50 for each of these?
1. CN1CCN(c2cc(C(=O)Nc3cc4cc(-c5cnc6[nH]ccc6c5)ccc4cn3)ccn2)CC1
2. O=C(CN1CCCC1)Nc1cc2cc(-c3cncc(F)c3)ccc2cn1
3. O=C(CN1CCOCC1)Nc1cc2cc(-c3cccnc3)ccc2cn1
4. CN1CCC(C(=O)Nc2cc3cc(-c4cccnc4)ccc3cn2)CC1
5. CN1CCN(CC(=O)Nc2cc3cc(-c4cncc(C(F)(F)F)c4)ccc3cn2)CC1
6. CNc1cncc(-c2ccc3cnc(NC(=O)c4ccnc(N5CCN(C)CC5)c4)cc3c2)n1
7. O=C(Nc1cc2cc(-c3cncc(NC4CCNCC4)n3)ccc2cn1)C1CCC(F)(F)CC1
8. O=C(Nc1cc2cc(-c3cncc(C(F)F)c3)ccc2cn1)c1cccc(C2CCNCC2)c1

Output:
1.26
1.59
0.90
0.30
2.78
0.30
0.30
1.46
